biological target: Factor X (FX), P00742
Sequence (P00742 whole entry, looked up): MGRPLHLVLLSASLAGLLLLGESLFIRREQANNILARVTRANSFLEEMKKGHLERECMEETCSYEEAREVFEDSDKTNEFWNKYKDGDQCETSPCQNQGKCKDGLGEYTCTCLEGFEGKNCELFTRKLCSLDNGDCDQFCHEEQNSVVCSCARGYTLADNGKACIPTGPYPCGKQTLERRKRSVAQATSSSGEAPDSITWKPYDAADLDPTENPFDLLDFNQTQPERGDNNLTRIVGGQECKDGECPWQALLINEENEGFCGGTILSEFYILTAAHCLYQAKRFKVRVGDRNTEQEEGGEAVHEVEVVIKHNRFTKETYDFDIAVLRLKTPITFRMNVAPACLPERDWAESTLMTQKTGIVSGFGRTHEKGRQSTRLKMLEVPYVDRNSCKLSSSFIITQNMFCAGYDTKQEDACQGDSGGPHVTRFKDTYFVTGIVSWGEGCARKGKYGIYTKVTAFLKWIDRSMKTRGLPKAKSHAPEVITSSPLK
quantity measured: kcat of FX activation by FIXa in the Xase complex (FVIIIa, PC/PS vesicles, Ca2+)

| protein | recorded result |
| --- | --- |
| FIXa-R318Y/R338E/T343R/R403E (protein) chain 1: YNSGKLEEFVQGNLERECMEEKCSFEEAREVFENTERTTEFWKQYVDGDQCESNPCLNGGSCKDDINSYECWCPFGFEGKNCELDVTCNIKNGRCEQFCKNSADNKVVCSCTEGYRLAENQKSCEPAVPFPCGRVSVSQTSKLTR chain 2: VVGGEDAKPGQFPWQVVLNGKVDAFCGGSIVNEKWIVTAAHCVETGVKITVVAGEHNIEETEHTEQKRNVIRIIPHHNYNAAINKYNHDIALLELDEPLVLNSYVTPICIADKEYTNIFLKFGSGYVSGWGRVFHKGYSALVLQYLRVPLVDRATCLESTKFRIYNNMFCAGFHEGGRDSCQGDSGGPHVTEVEGTSFLTGIISWGEECAMKGKYGIYTKVSEYVNWIKEKTKLT | 6.7 s⁻¹ |
